Form field: Emax (one value per entry).
Target: human thyroid receptor alpha ligand-binding domain (LBD) (Homo sapiens, UniProt P10827)
Construct: purchased Invitrogen
Sequence (P10827 163-410 isoform P10827-2 limits assumed, other chains not shown): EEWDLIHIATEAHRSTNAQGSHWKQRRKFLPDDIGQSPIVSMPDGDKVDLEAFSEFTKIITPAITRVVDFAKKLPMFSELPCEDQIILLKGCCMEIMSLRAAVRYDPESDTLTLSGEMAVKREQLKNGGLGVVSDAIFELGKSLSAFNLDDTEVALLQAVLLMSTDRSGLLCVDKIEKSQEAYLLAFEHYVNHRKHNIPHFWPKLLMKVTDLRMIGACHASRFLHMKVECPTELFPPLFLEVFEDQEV
Experiment: TR-FRET thyroid receptor alpha coactivator assay (THR biochemical assay, Assay 1)
Conditions: Table 5, THRα, read-out: Activity category Assay 1 THRα (Emax)
Text: The TR-FRET thyroid receptor beta coactivator assay was used with slight, optimized modifications of the manufacturer's protocol (Invitrogen). […] The energy transfer is detected as an increase in the fluorescence emission of the fluorescein acceptor, and a decrease in the fluorescence emission of the terbium donor. […]

| compound | target.system | Emax |
| --- | --- | --- |
| Nc1nn(-c2cc(Cl)c(Oc3cc(-c4cc5ccccn5n4)c(=O)[nH]n3)c(Cl)c2)c(=O)[nH]c1=O | human thyroid receptor alpha ligand-binding domain (LBD) (Homo sapiens, UniProt P10827) | < 50% |
| Nc1nn(-c2cc(Cl)c(Oc3n[nH]c(=O)cc3-c3ccc4c(c3)CCCO4)c(Cl)c2)c(=O)[nH]c1=O | human thyroid receptor alpha ligand-binding domain (LBD) (Homo sapiens, UniProt P10827) | < 50% |
| CC(c1cc(Oc2c(Cl)cc(-n3nc(N)c(=O)[nH]c3=O)cc2Cl)n[nH]c1=O)C1CC(F)(F)C1 (stereo not shown) [Compound 61] | human thyroid receptor alpha ligand-binding domain (LBD) (Homo sapiens, UniProt P10827) | 50 to 75% |
| Nc1nn(-c2cc(Cl)c(Oc3cc(-c4cccc(F)c4)c(=O)[nH]n3)c(Cl)c2)c(=O)[nH]c1=O | human thyroid receptor alpha ligand-binding domain (LBD) (Homo sapiens, UniProt P10827) | < 50% |
| CC(C)c1cc(=O)[nH]c2ccc(Oc3c(Cl)cc(-n4nc(N)c(=O)[nH]c4=O)cc3Cl)cc12 | human thyroid receptor alpha ligand-binding domain (LBD) (Homo sapiens, UniProt P10827) | < 50% |

Report Emax for "Nc1nn(-c2cc(Cl)c(Oc3cc(-c4cnc5ccccc5c4)c(=O)[nH]n3)c(Cl)c2)c(=O)[nH]c1=O" please.
< 50%

Report Emax for "Cc1cc(-n2nc(N)c(=O)[nH]c2=O)cc(C)c1Cc1ccc2c(c1)C1(CCCC1)C(=O)N2" please.
< 50%

Report Emax for "Nc1nn(-c2cc(Cl)c(Oc3n[nH]c(=O)cc3-c3cccc(F)c3)c(Cl)c2)c(=O)[nH]c1=O" please.
< 50%

Report Emax for "Nc1nn(-c2cc(Cl)c(Oc3cc(C4CCCCC4)c(=O)[nH]n3)c(Cl)c2)c(=O)[nH]c1=O" please.
< 50%

Report Emax for "C[C@@H](c1cc(Oc2c(Cl)cc(-n3nc(N)c(=O)[nH]c3=O)cc2Cl)n[nH]c1=O)C1CCC1" please.
< 50%

Report Emax for "Cc1cc(-n2nc(N)c(=O)[nH]c2=O)cc(Cl)c1Oc1cc(C(C)C)c(=O)[nH]n1" please.
50 to 75%

Report Emax for "CC(C)c1cc(Oc2c(Cl)cc(-n3nc(N)c(=O)[nH]c3=O)c3c2CC3)n[nH]c1=O" please.
< 50%

Report Emax for "Nc1nn(-c2cc(Cl)c(Oc3cc(-c4ccc5nnccc5c4)c(=O)[nH]n3)c(Cl)c2)c(=O)[nH]c1=O" please.
< 50%

Report Emax for "Nc1nn(-c2cc(Cl)c(Oc3cc(C4CCC(F)(F)CC4)c(=O)[nH]n3)c(Cl)c2)c(=O)[nH]c1=O" please.
< 50%

Report Emax for C[C@H]1C[C@H](c2cc(Oc3c(Cl)cc(-n4nc(N)c(=O)[nH]c4=O)cc3Cl)n[nH]c2=O)C1 (single isomer, unassigned) please.
< 50%

Report Emax for "O=c1cc(-c2ccc3sccc3c2)c(Oc2c(Cl)cc(-n3ncc(=O)[nH]c3=O)cc2Cl)n[nH]1" please.
< 50%

Report Emax for N#CC1CCC1c1cc(Oc2c(Cl)cc(-n3nc(N)c(=O)[nH]c3=O)cc2Cl)n[nH]c1=O (stereo not shown) please.
50 to 75%

Report Emax for "Nc1nn(-c2cc(Cl)c(Oc3cc(C4CC5(CCC5)C4)c(=O)[nH]n3)c(Cl)c2)c(=O)[nH]c1=O" please.
< 50%

Report Emax for "Nc1nn(-c2cc(Cl)c(Oc3cc(-c4ccc5ccnn5c4)c(=O)[nH]n3)c(Cl)c2)c(=O)[nH]c1=O" please.
< 50%

Report Emax for "Cc1cc(-c2nn(C)c(=O)[nH]c2=O)cc(C)c1Cc1ccc2[nH]cc(C(C)C)c2n1" please.
< 50%

Report Emax for "Nc1nn(-c2cc(Cl)c(Oc3ccc4c(c3)C3(CCCC3)C(=O)N4)c(Cl)c2)c(=O)[nH]c1=O" please.
50 to 75%

Report Emax for "CC(C)(C)c1cc(Oc2c(Cl)cc(-n3nc(N)c(=O)[nH]c3=O)cc2Cl)n[nH]c1=O" please.
50 to 75%

Report Emax for "Nc1nn(-c2cc(Cl)c(Oc3n[nH]c(=O)cc3-c3cnc4ccccc4c3)c(Cl)c2)c(=O)[nH]c1=O" please.
< 50%

Report Emax for Nc1nn(-c2cc(Cl)c(Oc3cc(C4Cc5ccccc54)c(=O)[nH]n3)c(Cl)c2)c(=O)[nH]c1=O (single isomer, unassigned) [Compound 165] please.
< 50%
